- measurementNotes: Single-dose oral pharmacokinetics in mice (plasma and brain)
- Format: in vivo, C57BL6 mice
- appliedConditions: male, C57BL6, mouse, PO 3.0 mg/kg, plasma, parent compound, read-out: Parent PK AUC
- Description: The single-dose pharmacokinetics of test compounds were analyzed relative to control (psilocin) in C57BL6 mice via oral (PO) administration. Test compound was dissolved in DMSO and transferred to a 15-mL tube, followed by addition of Tween-80, PEG-400, and water to final volume. […] Samples were analyzed by LC-MS/MS to quantify the amounts of test compound and control (psilocin). […]
property: AUC (ng·h/mL)
The answer is to be given in ng·h/mL; state only the numeric part.

Prompt: For the compound shown here, COC(C)Oc1cccc2[nH]cc(CCN(C)C)c12 (stereo not shown) , give the reported AUC.
Response: 51.4
